From: ChEMBL document CHEMBL6083242

System: MCF7
Test details: Antiproliferative activity against human MCF7 cells assessed as inhibition of cell proliferation
Readout type: IC50 (nM)

O=C(CCCCCCC(=O)N1CCc2c([nH]c3ccccc23)C1)NO
1840

I. O=C(CCCCCCC(=O)N1CCc2c(n(CC3CC3)c3ccccc23)C1)NO
II. CC(=O)N1CCc2c(n(CCCCCCC(=O)NO)c3ccccc23)C1
For the two items I and II , which reports the higher IC50 value? # respond with the chosen item's label
II
(II: 5670 nM, I: 1210 nM)

###

Test system: MDA-MB-231
Test details: Antiproliferative activity against human MDA-MB-231 cells assessed as inhibition of cell proliferation
Readout type: IC50 (µM)

CC(C)Cn1c2c(c3ccccc31)CCN(C(=O)CCCCCCC(=O)NO)C2
1.69

I. O=C(CCCCCCC(=O)N1CCc2c(n(CC3CC3)c3ccccc23)C1)NO
II. CC(=O)N1CCc2c(n(CCCCCCC(=O)NO)c3ccccc23)C1
III. O=C(CCCCCCC(=O)N1CCc2c([nH]c3ccccc23)C1)NO
Output the entries ranked by IC50 from maximum down to minimum. // format: requested-order list of labels
III, II, I
